- ASSAYED_SYSTEM: human ether-à-go-go-related gene (hERG) potassium channel (human, UniProt Q12809);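 note: peak tail current of the secondary pulse compared with the same well before compound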
- Sequence (Q12809 whole entry, looked up): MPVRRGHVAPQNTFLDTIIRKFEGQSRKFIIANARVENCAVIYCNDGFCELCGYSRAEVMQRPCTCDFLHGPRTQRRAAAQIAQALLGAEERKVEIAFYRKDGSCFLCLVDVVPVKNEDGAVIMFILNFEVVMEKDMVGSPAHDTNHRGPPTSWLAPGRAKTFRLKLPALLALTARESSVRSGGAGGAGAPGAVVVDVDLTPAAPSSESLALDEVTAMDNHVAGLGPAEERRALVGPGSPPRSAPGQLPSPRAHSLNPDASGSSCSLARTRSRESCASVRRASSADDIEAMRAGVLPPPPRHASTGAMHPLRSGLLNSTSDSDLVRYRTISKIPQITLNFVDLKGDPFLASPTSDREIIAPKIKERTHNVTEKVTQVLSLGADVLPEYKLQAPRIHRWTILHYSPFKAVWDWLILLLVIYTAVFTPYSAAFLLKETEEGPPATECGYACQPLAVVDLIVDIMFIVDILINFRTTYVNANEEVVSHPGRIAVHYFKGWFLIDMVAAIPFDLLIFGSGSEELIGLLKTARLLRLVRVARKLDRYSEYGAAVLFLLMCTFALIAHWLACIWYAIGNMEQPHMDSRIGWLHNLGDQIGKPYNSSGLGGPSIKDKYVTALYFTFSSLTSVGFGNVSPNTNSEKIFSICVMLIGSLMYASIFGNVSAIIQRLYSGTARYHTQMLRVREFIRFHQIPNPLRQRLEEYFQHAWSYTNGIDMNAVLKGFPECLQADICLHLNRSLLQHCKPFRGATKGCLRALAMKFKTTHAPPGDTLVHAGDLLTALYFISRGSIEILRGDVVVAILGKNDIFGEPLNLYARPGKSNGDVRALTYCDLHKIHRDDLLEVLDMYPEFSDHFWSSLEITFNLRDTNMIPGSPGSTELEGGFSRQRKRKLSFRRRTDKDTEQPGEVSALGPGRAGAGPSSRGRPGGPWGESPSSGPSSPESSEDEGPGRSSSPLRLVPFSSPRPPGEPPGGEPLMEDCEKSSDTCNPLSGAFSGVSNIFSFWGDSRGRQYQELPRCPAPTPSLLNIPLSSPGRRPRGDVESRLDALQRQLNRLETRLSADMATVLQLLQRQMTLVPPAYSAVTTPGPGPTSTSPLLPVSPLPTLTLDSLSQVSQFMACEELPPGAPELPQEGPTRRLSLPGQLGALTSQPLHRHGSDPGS
- TEST_PROTOCOL: primary screen, population patch clamp on CHO cells stably expressing hERG; higher = less effect of the substance
The campaign covered roughly 310,000 compounds. About 14,000 (4.5%) showed an effect of 50% or more. Effects have a minus sign here. For the sample, strong results were picked, then their nearest neighbours and some compounds at random.
Reported hERG current change (%, negative = inhibition) at 10uM values for a set of compounds

Known results for compounds:
{"COMPOUND": "COc1ccccc1NC(=O)N(CCN1CCOCC1)Cc1cc2cc(C)cc(C)c2[nH]c1=O", "ASSAYED_SYSTEM": "human ether-à-go-go-related gene (hERG) potassium channel (human, UniProt Q12809)", "RESULT": "-33.2%"}
{"COMPOUND": "O=C(NCc1ccc(Cl)cc1)c1cccc2c1C(=O)N(CC1CCCO1)C2 (centres unmarked)", "ASSAYED_SYSTEM": "human ether-à-go-go-related gene (hERG) potassium channel (human, UniProt Q12809)", "RESULT": "-70.8%"}
{"COMPOUND": "COc1ccc(S(=O)(=O)N2CCOCC2)cc1C(=O)Nc1cc(C)on1", "ASSAYED_SYSTEM": "human ether-à-go-go-related gene (hERG) potassium channel (human, UniProt Q12809)", "RESULT": "2.19%"}
{"COMPOUND": "Cc1cc(C)n(-c2ccc(S(=O)(=O)N3CCOCC3)cc2[N+](=O)[O-])n1", "ASSAYED_SYSTEM": "human ether-à-go-go-related gene (hERG) potassium channel (human, UniProt Q12809)", "RESULT": "-10.9%"}
{"COMPOUND": "Cc1ccc(S(=O)(=O)NCCC(=O)N2CCN(c3cccc(Cl)c3)CC2)cc1C", "ASSAYED_SYSTEM": "human ether-à-go-go-related gene (hERG) potassium channel (human, UniProt Q12809)", "RESULT": "4.35%"}

Looking up COc1ccccc1NC(=O)N(Cc1cc2cc(OC)c(OC)cc2[nH]c1=O)CC1CCCO1 (centres unmarked) , I see its hERG current change (%, negative = inhibition) at 10uM listed as -9.13%

hERG current change (%, negative = inhibition) at 10uM measured on O=C(Cc1cccs1)NCc1cccc(F)c1 = 14.4%

# compound O=C(CCN1C(=O)COc2ccccc21)N1CCN(c2ccccc2)CC1 ; its hERG current change (%, negative = inhibition) at 10uM = -15%

Reported hERG current change (%, negative = inhibition) at 10uM for Cc1ccc2c(c1)N(C(=O)CCC(=O)N1CCN(c3ccccn3)CC1)CCO2 was -52.2%

Per the records, this compound ( Cc1ccc2c(c1)N(C(=O)CCC(=O)N1CCN(c3cccc(C)c3C)CC1)CCO2 ) has hERG current change (%, negative = inhibition) at 10uM equal to -18.7%

Please fill in: hERG current change (%, negative = inhibition) at 10uM reported for COc1ccc(-c2nn(-c3ccccc3)cc2C(=O)NC(=S)N2CCOCC2)cc1OC = 30.1%

The reported hERG current change (%, negative = inhibition) at 10uM of the compound O=C(O)c1cccc2c1C(=O)N(CC1CCCO1)C2 (centres unmarked) was 24.2%

hERG current change (%, negative = inhibition) at 10uM measured on CCc1cccc(NC(=O)c2cccc3c2C(=O)N(CC2CCCO2)C3)c1 (centres unmarked) = -72.2%

Reported hERG current change (%, negative = inhibition) at 10uM of COc1cc2c(cc1OC)C(C(=O)N1CCN(c3ccccc3)CC1)C(c1cccs1)N(C)C2=O (centres unmarked) : -68.1%

Item: O=C(CCS(=O)(=O)c1cccc2nonc12)N1CCOCC1 | hERG current change (%, negative = inhibition) at 10uM: 14.6%

Notebook: COc1ccccc1NC(=O)N(Cc1ccco1)Cc1cc2ccc(C)c(C)c2[nH]c1=O , hERG current change (%, negative = inhibition) at 10uM read as 8.85%

For O=C1c2ccccc2C(=O)N1CC(O)COc1ccc(Br)cc1 (centres unmarked) the compound record lists hERG current change (%, negative = inhibition) at 10uM as -1.51%

Field hERG current change (%, negative = inhibition) at 10uM (entry C=CCn1nnnc1SCC(=O)Nc1cccc(C(F)(F)F)c1 ) reads 9.66%

Measured hERG current change (%, negative = inhibition) at 10uM of CCOc1ccc2[nH]c(=O)c(CN(Cc3ccccc3)C(=O)N3CCCC3)cc2c1 : 9.28%

According to the records, this compound O=C(CCS(=O)(=O)c1cccc2nonc12)N1CCN(c2ccc(F)cc2)CC1 displays hERG current change (%, negative = inhibition) at 10uM of -60.8%

Measured hERG current change (%, negative = inhibition) at 10uM of O=S(=O)(c1cccc2nonc12)N1CCN(c2cccc(Cl)c2)CC1 : -4%

// sample CCOC(=O)c1ccc(NC(=O)c2cccc3c2C(=O)N(CC2CCCO2)C3)cc1 (centres unmarked) , its hERG current change (%, negative = inhibition) at 10uM was -2.27%
